All values here come from ChEMBL document CHEMBL4483862.

- System: Plasmodium berghei
- PROTOCOL DETAILS: Luciferase/luciferin-expressing antifolate-resistant parasites were used to infect a culture of HepG2 cells that were pre-incubated with compounds. Infected hepatocytes emit light due to the luciferase reaction. Assay results are presented as the percent inhibition of light emission compared to control. […]
- Assay type: functional
- RECORDED CONDITIONS: sporozoite, FFLUC_HILL_SLOPE 11.5, FFLUC_R_SQUARED 0.0724, read-out: LUCIFERASE INFECTION ASSAY - IC50
MEASURED ATTRIBUTE: IC50

Dear colleague, I am looking for the recorded IC50 of the following compound: C=CCOc1ccccc1CN(c1ccc2c(c1)OCCO2)S(=O)(=O)c1cccs1
> 10 µM

====

- System: Plasmodium berghei
- PROTOCOL DETAILS: Luciferase/luciferin-expressing antifolate-resistant parasites were used to infect a culture of HepG2 cells that were pre-incubated with compounds. Infected hepatocytes emit light due to the luciferase reaction. Assay results are presented as the percent inhibition of light emission compared to control. […]
- Type: functional
- RECORDED CONDITIONS: sporozoite, HEPG2TOX_HILL_SLOPE 0.154, HEPG2TOX_R_SQUARED 0.656, read-out: LUCIFERASE INFECTION ASSAY - IC50
MEASURED ATTRIBUTE: IC50

Dear colleague, I am looking for the recorded IC50 of the following molecule: CCN(c1ccccc1)S(=O)(=O)c1ccc(C(=O)NC2CCCCC2)cc1
> 10 µM

====

- System: Plasmodium berghei
- PROTOCOL DETAILS: Luciferase/luciferin-expressing antifolate-resistant parasites were used to infect a culture of HepG2 cells that were pre-incubated with compounds. Infected hepatocytes emit light due to the luciferase reaction. Assay results are presented as the percent inhibition of light emission compared to control. […]
- Type: functional
- RECORDED CONDITIONS: sporozoite, HEPG2TOX_HILL_SLOPE 1.35, HEPG2TOX_R_SQUARED 0.846, PBLUC_HILL_SLOPE 3.65, PBLUC_R_SQUARED 0.5, read-out: LUCIFERASE INFECTION ASSAY - IC50
MEASURED ATTRIBUTE: IC50 (µM)
Give the number; µM is assumed, so skip it.

Dear colleague, I am looking for the recorded IC50 of the following compound: CNc1snc(C)c1C(=O)OCCOc1ccccc1C(C)=O
3.86

====

- System: Plasmodium berghei
- PROTOCOL DETAILS: Luciferase/luciferin-expressing antifolate-resistant parasites were used to infect a culture of HepG2 cells that were pre-incubated with compounds. Infected hepatocytes emit light due to the luciferase reaction. Assay results are presented as the percent inhibition of light emission compared to control. […]
- Type: functional
- RECORDED CONDITIONS: sporozoite, FFLUC_HILL_SLOPE 16.7, FFLUC_R_SQUARED 0.464, PBLUC_HILL_SLOPE 10.3, PBLUC_R_SQUARED 0.0963, read-out: LUCIFERASE INFECTION ASSAY - IC50
MEASURED ATTRIBUTE: IC50

Dear colleague, I am looking for the recorded IC50 of the following molecule: Cc1cccc(Cn2nc(C(C)(C)C)cc2-c2nnc(SCC(=O)c3ccccc3)o2)c1
> 7.39 µM

====

- System: Plasmodium berghei
- PROTOCOL DETAILS: Luciferase/luciferin-expressing antifolate-resistant parasites were used to infect a culture of HepG2 cells that were pre-incubated with compounds. Infected hepatocytes emit light due to the luciferase reaction. Assay results are presented as the percent inhibition of light emission compared to control. […]
- Type: functional
- RECORDED CONDITIONS: sporozoite, FFLUC_HILL_SLOPE 12.7, FFLUC_R_SQUARED 0.403, HEPG2TOX_HILL_SLOPE 1.43, HEPG2TOX_R_SQUARED 0.399, PBLUC_HILL_SLOPE 4.08, PBLUC_R_SQUARED 0.666, read-out: LUCIFERASE INFECTION ASSAY - IC50
MEASURED ATTRIBUTE: IC50 (µM)
Give the number; µM is assumed, so skip it.

Dear colleague, I am looking for the recorded IC50 of the following molecule: COc1ccc(-c2nc3ccccc3n2-c2cc(-c3ccccc3)nn2-c2ccccc2)cc1
4.92
